IC50 values for the binders below.
Target: T1, β-catenin (UniProt P35222 1-781, limits assumed)
T1 construct: also called beta-catenin
T1 sequence (looked up): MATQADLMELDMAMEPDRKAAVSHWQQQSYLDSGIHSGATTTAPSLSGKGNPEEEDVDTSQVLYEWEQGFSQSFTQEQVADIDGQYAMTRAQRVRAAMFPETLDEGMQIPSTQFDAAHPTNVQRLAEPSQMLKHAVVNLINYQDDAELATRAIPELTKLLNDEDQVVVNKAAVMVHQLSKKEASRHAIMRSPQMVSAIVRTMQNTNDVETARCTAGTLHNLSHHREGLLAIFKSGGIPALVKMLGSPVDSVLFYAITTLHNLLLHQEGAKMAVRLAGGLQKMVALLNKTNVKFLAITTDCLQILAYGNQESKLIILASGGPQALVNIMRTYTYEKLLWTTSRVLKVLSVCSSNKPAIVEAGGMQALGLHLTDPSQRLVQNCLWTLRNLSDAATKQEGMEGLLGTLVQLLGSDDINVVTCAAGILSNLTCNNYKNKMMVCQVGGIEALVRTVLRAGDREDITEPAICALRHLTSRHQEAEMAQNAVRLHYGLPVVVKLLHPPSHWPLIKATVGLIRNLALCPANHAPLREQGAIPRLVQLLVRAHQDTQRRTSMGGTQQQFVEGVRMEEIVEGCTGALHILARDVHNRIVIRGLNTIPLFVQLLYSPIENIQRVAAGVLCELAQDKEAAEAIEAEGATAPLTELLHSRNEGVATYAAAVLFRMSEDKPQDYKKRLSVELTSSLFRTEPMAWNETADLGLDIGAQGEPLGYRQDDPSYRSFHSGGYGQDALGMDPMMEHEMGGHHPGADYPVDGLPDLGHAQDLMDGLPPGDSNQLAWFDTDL
Experiment: ALPHA Screen (BCL9/β-catenin);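 further: bead proximity readout with the polypeptide linked to donor beads and β-catenin fixed on acceptor beads, their binding bringing the beads close enough to emit signal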
Bridges are numbered along the chain shown (N, C = ends). Primed or numbered codes have the meaning given here. Side-chain parts run from the residue outwards. [ ]: non-standard residue; d: D form. The star is where a group is joined. PEG4″ = PEG4 (tetraethylene glycol) spacer; 2Nal = N[C@@H](Cc1ccc2ccccc2c1)C(=O)O; Palmitoyl = CCCCCCCCCCCCCCCC(=O)*; Cba = N[C@@H](CC1CCC1)C(=O)O; S5 = C=CCCC[C@](C)(N)C(=O)O
Field format: number, assumed µM, no unit text.

Recorded IC50, per entry:
Ac-HRQRSLQTLR[S5]IQR[S5][Cba][2Nal]K([PEG4″-Palmitoyl])-NH2 (staple 11-15) [SEQ ID NO: 161] : 0.791
Ac-QLEHRERSLQTLR[S5]IQR[S5]L[2Nal]-NH2 (staple 14-18; not fully specified; printed as QLEHRERSLQTLRXIQRXL(2-Nal)) [SEQ ID NO: 8] : 0.77

Value of IC50 reported for the binder Ac-HRERSLQTLR[S5]IQA[S5][Cba][2Nal]-NH2 (staple 11-15; not fully specified; printed as HRERSLQTLRXIQAX(CBA)(2-Nal)) [SEQ ID NO: 29] is 1.35
